Could you please report measured protein stability index for the items listed next?
- Test system: Saccharomyces cerevisiae
- measurement protocol: protein stability index of tFT-peptide fusion (C-terminal peptide) (PSI (0-1 scale)); higher = more stable (slower turnover)
- condition summary: genetic background: doa10 deletion; temperature: 30 C
Numbers only.

# batch: return protein stability index for each of the 7 sequences below
1. TLCCLVCSQGVV
2. FFLKPVPSLFLC
3. IFFVLVFFPGFF
4. GILILRLILCLF
5. LRSVLGWGLFLA
6. SVKRVVPCLVSC
7. LYLCLVSPVVVL

OUT:
1. 0.482
2. 0.0796
3. 0.359
4. 0.171
5. 0.236
6. 0.289
7. 0.184

# batch: return protein stability index for each of the 6 sequences below
1. LCLLFLSFFFVC
2. GKKKREWKKNRI
3. LGRFHLACLLFL
4. PCPAPRPPSPSA
5. WFSRCVSLGLCW
6. FFLVLWSSLLSP

OUT:
1: 0.229; 2: 0.217; 3: 0.41; 4: 0.668; 5: 0.274; 6: 0.358

# batch: return protein stability index for each of the 6 sequences below
1. FFDLSLYSLCLC
2. LYIQWVSRWSVQ
3. CLFSPFCFILFC
4. CPALYMPPPVLV
5. SLRKRILCRFEY
6. SPVPITVAVGCR

OUT:
1. 0.229
2. 0.388
3. 0.285
4. 0.14
5. 0.368
6. 0.329

# batch: return protein stability index for each of the 4 sequences below
1. FVRSVFFCVSVG
2. ISHLQCFFVVML
3. IFLKFGLLRSLL
4. GLFLYCCLVSLL

OUT:
1: 0.34; 2: 0.376; 3: 0.616; 4: 0.191

====

- Tested on: Saccharomyces cerevisiae
- measurement protocol: protein stability index of tFT-peptide fusion (C-terminal peptide) (PSI (0-1 scale)); higher = more stable (slower turnover)
- condition summary: genetic background: cdc53-1; temperature: 37 C
quantity name: protein stability index
Give bare numbers.

// worked examples, protein stability index included
[
  {
    "residue codes": "SSFFFLFCFFPS",
    "protein stability index": 0.619
  },
  {
    "residue codes": "LLSFSQLGYFVL",
    "protein stability index": 0.716
  },
  {
    "residue codes": "RFCLPLRLPVTT",
    "protein stability index": 0.563
  },
  {
    "residue codes": "CFLLVSLGILCW",
    "protein stability index": 0.0425
  },
  {
    "residue codes": "VSISLCVLCPVF",
    "protein stability index": 0.319
  },
  {
    "residue codes": "VLARGFHCMYFC",
    "protein stability index": 0.736
  }
]

# batch: return protein stability index for each of the 5 sequences below
1. VMFCRFPLRFGC
2. GGCYAGVAMRLI
3. AHPTLILTNKIA
4. VSLSWFSCCFVG
5. GTMGWYSISRRL

OUT:
1. 0.726
2. 0.729
3. 0.705
4. 0.556
5. 0.754

====

- Tested on: Saccharomyces cerevisiae;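 also: PSI is a weighted mean of sequencing reads over stability bins, variants kept only with over 10 reads, mCherry proximal and sfGFP distal, peptide attached via GGGS linker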
- measurement protocol: protein stability index of tFT-peptide fusion (C-terminal peptide) (PSI (0-1 scale)); higher = more stable (slower turnover)
- condition summary: genetic background: wild type; temperature: 37 C
Could you please report measured protein stability index for the items listed next?
Numbers only.

// worked examples, protein stability index included
[
  {
    "residue codes": "LCGIFTFRLSLL",
    "quantity name": "protein stability index",
    "recorded number": 0.437
  },
  {
    "residue codes": "VWLAWCIVGGLG",
    "quantity name": "protein stability index",
    "recorded number": 0.523
  },
  {
    "residue codes": "GGSWVRCLRTMG",
    "quantity name": "protein stability index",
    "recorded number": 0.399
  },
  {
    "residue codes": "VCILLVAWCLMG",
    "quantity name": "protein stability index",
    "recorded number": 0.155
  },
  {
    "residue codes": "VLVCYFCRYISH",
    "quantity name": "protein stability index",
    "recorded number": 0.532
  }
]

# batch: return protein stability index for each of the 3 sequences below
1. HVPPVFQASLSP
2. FFFVLVSGWWGV
3. SFLVRFVYFFAL

OUT:
[0.713, 0.374, 0.309]

# batch: return protein stability index for each of the 2 sequences below
1. FLRLSFLIFPLH
2. LLMFWLSIWFWG

OUT:
1. 0.546
2. 0.355
